src = ChEMBL document CHEMBL3044727

tested on: Escherichia coli; test: Antimicrobial activity against Escherichia coli MTCC 3261 at 40 ug after 24 hr by streak plate method; format: functional; details: MTCC 3261, 24 h, read-out: IZ
Observable: log10 zone of inhibition at 40 µg/disc (log10 of the value in mm)

Compound: O=C(NC(c1ccccc1)c1cc2ccccc2cc1O)NC(c1ccccc1)c1cc2ccccc2cc1O (stereo not drawn)
log10 zone of inhibition at 40 µg/disc: 0.90
--
Compound: CC1(C)S[C@@H]2[C@H](NC(=O)Cc3ccccc3)C(=O)N2[C@H]1C(=O)O
log10 zone of inhibition at 40 µg/disc: 1.48
--
Compound: O=C1CCC(=O)N1C(Nc1ccccn1)c1ccccc1 (stereo not drawn)
log10 zone of inhibition at 40 µg/disc: 0.60
--
Compound: O=C1CCC(=O)N1C(Nc1ccccc1)c1ccccc1 (stereo not drawn)
log10 zone of inhibition at 40 µg/disc: 0.30
--
Compound: O=C1c2ccccc2C(=O)N1CNc1ccccc1
log10 zone of inhibition at 40 µg/disc: 0.48
--
Compound: O=C1CCC(=O)N1CNc1ccccn1
log10 zone of inhibition at 40 µg/disc: 0.85
--
Compound: CN[C@@H]1[C@H](O[C@H]2[C@H](O[C@H]3[C@H](O)[C@@H](O)[C@H](N=C(N)N)[C@@H](O)[C@@H]3N=C(N)N)O[C@@H](C)[C@]2(O)C=O)O[C@@H](CO)[C@H](O)[C@H]1O
log10 zone of inhibition at 40 µg/disc: 1.59
--
Compound: Oc1cc2ccccc2cc1Cn1cccc1
log10 zone of inhibition at 40 µg/disc: 0.60

* * *

test system: Salmonella typhi; experiment: Antimicrobial activity against Salmonella enterica subsp. enterica serovar Typhi MTCC 3917 at 40 ug after 24 hr by streak plate method; format: functional; conditions: MTCC 3917, 24 h, read-out: IZ
Label Fulfilled when zone of inhibition at 40 µg/disc >= 6 mm; otherwise Not fulfilled.

Compound: CN[C@@H]1[C@H](O[C@H]2[C@H](O[C@H]3[C@H](O)[C@@H](O)[C@H](N=C(N)N)[C@@H](O)[C@@H]3N=C(N)N)O[C@@H](C)[C@]2(O)C=O)O[C@@H](CO)[C@H](O)[C@H]1O
Class assignment: Fulfilled

Compound: O=C1CCC(=O)N1C(Nc1ccccn1)c1ccccc1 (configuration not stated)
Class assignment: Not fulfilled

Compound: O=C1c2ccccc2C(=O)N1CNc1ccccc1
Class assignment: Not fulfilled

Compound: O=C(NC(c1ccccc1)c1cc2ccccc2cc1O)NC(c1ccccc1)c1cc2ccccc2cc1O (configuration not stated)
Class assignment: Fulfilled

Compound: CC1(C)S[C@@H]2[C@H](NC(=O)Cc3ccccc3)C(=O)N2[C@H]1C(=O)O
Class assignment: Fulfilled

Compound: Oc1cc2ccccc2cc1Cn1cccc1
Class assignment: Fulfilled

* * *

system: Radical scavenging activity; experiment: Antioxidant activity assessed as DPPH radical scavenging activity at 100 ug; type: functional
Observable: Activity

Compound: O=C1CCC(=O)N1CNc1ccccn1
Observable: Activity
Result: 27%

Compound: O=C1CCC(=O)N1CNc1ccccc1
Observable: Activity
Result: 20%

Compound: O=C1c2ccccc2C(=O)N1CNc1ccccc1
Observable: Activity
Result: 22%

Compound: Oc1cc2ccccc2cc1Cn1cccc1
Observable: Activity
Result: 36%

Compound: O=C1CCC(=O)N1C(Nc1ccccn1)c1ccccc1 (stereo not drawn)
Observable: Activity
Result: 23%

Compound: O=C1O[C@H]([C@@H](O)CO)C(O)=C1O
Observable: Activity
Result: 58%

Compound: O=C1CCC(=O)N1C(Nc1ccccc1)c1ccccc1 (stereo not drawn)
Observable: Activity
Result: 18%

Compound: O=C(NC(c1ccccc1)c1cc2ccccc2cc1O)NC(c1ccccc1)c1cc2ccccc2cc1O (stereo not drawn)
Observable: Activity
Result: 37%

* * *

test system: Aspergillus fumigatus; test: Antimicrobial activity against Aspergillus fumigatus MTCC 6594 at 60 ug after 48 hr by streak plate method; type: functional; settings: MTCC 6594, 48 h, read-out: IZ

Compound: O=C1CCC(=O)N1C(Nc1ccccn1)c1ccccc1 (configuration not stated)
Measurement target: Aspergillus fumigatus
zone of inhibition at 60 µg/disc, mm: 3
//
Compound: O=C(NC(c1ccccc1)c1cc2ccccc2cc1O)NC(c1ccccc1)c1cc2ccccc2cc1O (configuration not stated)
Measurement target: Aspergillus fumigatus
zone of inhibition at 60 µg/disc, mm: 11
//
Compound: O=C1c2ccccc2C(=O)N1CNc1ccccc1
Measurement target: Aspergillus fumigatus
zone of inhibition at 60 µg/disc, mm: 2
//
Compound: O=C1CCC(=O)N1C(Nc1ccccc1)c1ccccc1 (configuration not stated)
Measurement target: Aspergillus fumigatus
zone of inhibition at 60 µg/disc, mm: 6
//
Compound: Oc1cc2ccccc2cc1Cn1cccc1
Measurement target: Aspergillus fumigatus
zone of inhibition at 60 µg/disc, mm: 3
//
Compound: C[C@@H]1[C@H](O)[C@@H](C)/C=C/C=C/C=C/C=C/C=C/C=C/C=C/[C@H](O[C@@H]2O[C@H](C)[C@@H](O)[C@H](N)[C@@H]2O)C[C@@H]2O[C@](O)(C[C@@H](O)C[C@@H](O)[C@H](O)CC[C@@H](O)C[C@@H](O)CC(=O)O[C@H]1C)C[C@H](O)[C@H]2C(=O)O
Measurement target: Aspergillus fumigatus
zone of inhibition at 60 µg/disc, mm: 30
//
Compound: O=C1CCC(=O)N1CNc1ccccn1
Measurement target: Aspergillus fumigatus
zone of inhibition at 60 µg/disc, mm: 13

* * *

tested on: Aspergillus oryzae; assay: Antimicrobial activity against Aspergillus oryzae MTCC 3782 at 40 ug after 48 hr by streak plate method; assay type: functional; conditions: MTCC 3782, 48 h, read-out: IZ
Measured zone of inhibition at 40 µg/disc by item

Compound: C[C@@H]1[C@H](O)[C@@H](C)/C=C/C=C/C=C/C=C/C=C/C=C/C=C/[C@H](O[C@@H]2O[C@H](C)[C@@H](O)[C@H](N)[C@@H]2O)C[C@@H]2O[C@](O)(C[C@@H](O)C[C@@H](O)[C@H](O)CC[C@@H](O)C[C@@H](O)CC(=O)O[C@H]1C)C[C@H](O)[C@H]2C(=O)O [AMPHOTERICIN B]
zone of inhibition at 40 µg/disc: 12 mm
--
Compound: Oc1cc2ccccc2cc1Cn1cccc1
zone of inhibition at 40 µg/disc: 10 mm
--
Compound: O=C(NC(c1ccccc1)c1cc2ccccc2cc1O)NC(c1ccccc1)c1cc2ccccc2cc1O (stereo unspecified)
zone of inhibition at 40 µg/disc: 8 mm
--
Compound: O=C1CCC(=O)N1C(Nc1ccccn1)c1ccccc1 (stereo unspecified)
zone of inhibition at 40 µg/disc: 10 mm
--
Compound: O=C1c2ccccc2C(=O)N1CNc1ccccc1
zone of inhibition at 40 µg/disc: 7 mm
--
Compound: O=C1CCC(=O)N1C(Nc1ccccc1)c1ccccc1 (stereo unspecified)
zone of inhibition at 40 µg/disc: 12 mm

* * *

test system: Radical scavenging activity; assay: Antioxidant activity assessed as DPPH radical scavenging activity at 50 ug; assay type: functional
Give Yes when the value for Activity is at least 20%. Give No when it is less.

Compound: O=C1CCC(=O)N1C(Nc1ccccn1)c1ccccc1 (stereo not drawn)
Class assignment: No

Compound: Oc1cc2ccccc2cc1Cn1cccc1
Class assignment: Yes

Compound: O=C1CCC(=O)N1CNc1ccccn1
Class assignment: No

Compound: O=C1CCC(=O)N1CNc1ccccc1
Class assignment: No

Compound: O=C1c2ccccc2C(=O)N1CNc1ccccc1
Class assignment: No

Compound: O=C1O[C@H]([C@@H](O)CO)C(O)=C1O
Class assignment: Yes

Compound: O=C(NC(c1ccccc1)c1cc2ccccc2cc1O)NC(c1ccccc1)c1cc2ccccc2cc1O (stereo not drawn)
Class assignment: Yes

Compound: O=C1CCC(=O)N1C(Nc1ccccc1)c1ccccc1 (stereo not drawn)
Class assignment: No

* * *

We begin with a simple list: items and their reported Activity.
system: Radical scavenging activity; test: Antioxidant activity assessed as DPPH radical scavenging activity at 75 ug; assay type: functional
Observable: Activity (%)

Compound: Oc1cc2ccccc2cc1Cn1cccc1
Measurement target: Radical scavenging activity
Numeric result: 35
//
Compound: O=C1CCC(=O)N1CNc1ccccn1
Measurement target: Radical scavenging activity
Numeric result: 22
//
Compound: O=C1O[C@H]([C@@H](O)CO)C(O)=C1O
Measurement target: Radical scavenging activity
Numeric result: 57
//
Compound: O=C1CCC(=O)N1C(Nc1ccccn1)c1ccccc1 (stereo not drawn)
Measurement target: Radical scavenging activity
Numeric result: 20
//
Compound: O=C1CCC(=O)N1C(Nc1ccccc1)c1ccccc1 (stereo not drawn)
Measurement target: Radical scavenging activity
Numeric result: 17
//
Compound: O=C1CCC(=O)N1CNc1ccccc1
Measurement target: Radical scavenging activity
Numeric result: 18
//
Compound: O=C(NC(c1ccccc1)c1cc2ccccc2cc1O)NC(c1ccccc1)c1cc2ccccc2cc1O (stereo not drawn)
Measurement target: Radical scavenging activity
Numeric result: 35
//
Compound: O=C1c2ccccc2C(=O)N1CNc1ccccc1
Measurement target: Radical scavenging activity
Numeric result: 20
